Each recorded value in this set is attributed to ChEMBL document CHEMBL1201862.

The entries below are paired with their reported GI50.
tested on: HT-29; assay: NCI tumour cell line growth inhibition, 48 h
Activity calls are given as the source filed them. Rule as the data show it: active = GI50 up to about 1.1 µM and inactive = higher.

Some solved cases for reference:
COC1(c2cccs2)c2ccccc2C(OC)(c2cccs2)c2ccccc21 (stereo not given): 50.8 µM (inactive)
Clc1ncc(C(Cl)(Cl)Cl)nc1-c1ccccc1: 1.82 µM (inactive)
CCC(=O)N1C(=O)OCC1C(C)C (stereo not given): > 100 µM (inactive)
C[C@@H](CC(=O)OCc1ccccc1)OC1OC(COC(=O)C(C)(C)C)C(OC(=O)C(C)(C)C)C(OC(=O)C(C)(C)C)C1OC(=O)C(C)(C)C (stereo not given in full): > 100 µM (inactive)

Below: the item to evaluate.
Task item: Suppose we examine the compound COC1=C2C=[N+](C)C3C(=C2C=CC1OC)Cc1cc2c(cc13)OCO2 (stereo not given) ; what GI50 value has been reported?
Reply: 13.5 µM (inactive)
